System: SR leukemia
Test: NCI tumour cell line growth inhibition, 48 h
MEASURED_METRIC: TGI

*Q* So what does the record say about TGI for `c1ccc([C@@H]2N[C@@]3(CO[Si](c4ccccc4)(c4ccccc4)c4ccccc4)CC[C@H]4CN[C@@H]2[C@H]43)cc1` ?
*A* > 100 µM

*Q* And for `CCOC(=O)c1c(C)n(CC(C)C)c2c1cc1oc(=O)c(=O)n3cnc2c13` ?
*A* > 50 µM

*Q* And for `NS(=O)(=O)c1ccc(NC(=O)CC(=O)Nc2ccc(S(N)(=O)=O)cc2)cc1` ?
*A* > 100 µM

*Q* And for `CN(C)c1ccc2nc3c(C(=O)O)cc(=O)c(O)c-3oc2c1` ?
*A* 50.1 µM

*Q* And for C[C@H]1C(OCCOC2O[C@@H]3O[C@@]4(C)CC[C@H]5[C@H](C)CCC([C@H]2C)[C@@]35O4)O[C@@H]2O[C@@]3(C)CC[C@H]4[C@H](C)CCC1[C@@]24O3 (some centres undefined) ?
*A* > 100 µM

*Q* And for `C/C(=N\NC(=O)/C(C#N)=C\c1ccc(N(CCC#N)CCC#N)cc1)c1ccccc1` ?
*A* > 10 µM

*Q* And for `O=c1cc(NCC2CCCCC2)[nH]c(=O)[nH]1` ?
*A* > 100 µM

*Q* And for `CCc1ccc(/C(C)=N/NC(N)=S)cc1` ?
*A* > 100 µM

*Q* And for CN(C)c1ncnc2c1ncn2C1C=CC(COS(N)(=O)=O)C1 (centres undefined) ?
*A* > 100 µM

* * *

Would you kindly list TGI for each of these compounds?
Tested on: NCI/ADR-RES ovarian
Assay: NCI tumour cell line growth inhibition, 48 h

*Q* So what does the record say about TGI for Cc1ccc(S(=O)(=O)NC(CCC(=O)Nc2ccccc2)C(=O)Nc2ccccc2)cc1 (stereo not given) ?
*A* 2.19 µM

*Q* And for `Cc1ccccc1-n1c(/C=C\c2ccccn2)nc2ccccc2c1=O` ?
*A* 79.5 µM

*Q* And for `CC[C@H](Nc1nc(N)nc(N)c1Cl)c1nc2cccc(NCc3ccc(C(=O)NO)cc3)c2c(=O)n1-c1ccccc1` ?
*A* > 100 µM

*Q* And for CC1=CC2(O)OC3(CC2=C(C)C)C(C)CCC13 (stereo not given) ?
*A* > 100 µM

*Q* And for c1ccc2cc(OCC3CO3)c(OCC3CO3)cc2c1 (stereo not given) ?
*A* 27.3 µM

*Q* And for `Cc1cn(CC2=NCC(C)(C)CN2)c(=O)[nH]c1=O` ?
*A* > 100 µM

*Q* And for `CC(=N/NC(=S)Nc1c(C)n(C)n(-c2ccccc2)c1=O)/C(C)=N\NC(=S)Nc1c(C)n(C)n(-c2ccccc2)c1=O` ?
*A* > 100 µM

*Q* And for C/C(=N\NS(=O)(=O)c1ccc(C)cc1)C(CN(C)C)C(c1ccccc1)c1c(O)c2ccccc2oc1=O (stereo not given) ?
*A* > 100 µM

*Q* And for `CCOC(=O)c1c2c(c(O)c3ccccc3c(O)n(-c3ccc(C)cc3)c1C)C(=O)C=CC2=O` ?
*A* 48.7 µM

*Q* And for `Cn1cc2c(=O)n3ncn(-c4ccc(Br)cc4)c3nc2n1` ?
*A* > 100 µM

*Q* And for `CS(=O)(=O)OCCN(CCOS(C)(=O)=O)c1ccc(C=Nc2ccc3oc(=O)ccc3c2)cc1` ?
*A* 62.5 µM

*Q* And for `COc1cccc(-c2cccc(SC)n2)n1` ?
*A* > 100 µM

*Q* And for `O=C1C(Cl)=C(Nc2cccc(C(F)(F)F)c2)C(=O)N1Cc1ccccc1Cl` ?
*A* 26.8 µM

*Q* And for COC(=O)/C(C#N)=C1\NC(=O)CC(c2ccccc2)C1C#N (stereo not given) ?
*A* > 100 µM

*Q* And for `COc1ccc2c(c1OC)-c1c(c3ccc([N+](=O)[O-])cc3c(=O)n1CCCN=[N+]=[N-])C2=O` ?
*A* > 100 µM

*Q* And for `Oc1ccc(Br)cc1/C=N/NC(=S)NC12CC3CC(CC(C3)C1)C2` ?
*A* 7.89 µM

*Q* And for `CC(F)(F)c1cc(F)ccc1-c1sc2cc(O)ccc2c1Oc1ccc(/C=C/C(=O)O)cc1` ?
*A* 40.1 µM

*Q* And for `Cc1[nH]nc2c1N=C(c1ccccc1F)c1cc(C#N)ccc1N2` ?
*A* > 25 µM

*Q* And for CN1CC2=C(NC(=S)NC2c2ccc(Cl)cc2)/C(=C/c2ccc(Cl)cc2)C1 (stereo not given) ?
*A* 43.6 µM

*Q* And for `CN1CCN(Cc2ccc(NC(=O)c3[nH]ncc3Nc3ncnc4sccc34)cc2)CC1` ?
*A* > 100 µM

* * *

Test system: OVCAR-5 ovarian
Assay: NCI tumour cell line growth inhibition, 48 h; in the data active = GI50 below about 0.43 µM; inactive = the rest
Bench note: report the call from active, inactive

*Q* Outcome logged for Cc1ccc(C2SCc3nc4ccc(C(=O)c5ccccc5)cc4n32)cc1 (stereo not drawn) in this assay:
*A* inactive

*Q* And for COc1cc(C2CC(c3ccc4c(c3)OCO4)=NN2C(C)=O)cc(OC)c1OC (stereo not drawn) ?
*A* inactive

*Q* And for O=C(CC1(O)C(=O)Nc2ccc(Br)cc21)c1ccc(C(=O)NCC2CCC3(CC2)OOC2(CCCCC2)OO3)cc1 (stereo not drawn) ?
*A* inactive

*Q* And for `CC[C@@H](C)[C@H]([C@H](CC(=O)N1CCC[C@@H]1[C@@H](OC)[C@H](C)C(=O)N[C@H](Cc1ccccc1)c1nccs1)OC)N(C)C(=O)[C@H](NC(=O)[C@@H](C(C)C)N(C)C)C(C)C` ?
*A* active

*Q* And for `CCCC[P+](c1ccccc1)(c1ccccc1)c1ccccc1` ?
*A* inactive

*Q* And for `O=C1/C(=C/c2ccc([N+](=O)[O-])s2)Oc2ccccc21` ?
*A* inactive

*Q* And for `O=C(NCCN1CCOCC1)Nc1ccc(-c2cc3c(Nc4ccc(Oc5cccc(C(F)(F)F)c5)c(Cl)c4)ncnc3s2)cc1` ?
*A* inactive

*Q* And for `COc1cccc2c1cc([N+](=O)[O-])c1c(C(=O)O)cc3c(c12)OCO3` ?
*A* inactive

* * *

Test system: HL-60(TB) leukemia
Assay: NCI tumour cell line growth inhibition, 48 h; in the data active = GI50 below about 0.43 µM; inactive = the rest
Bench note: report the call from active, inactive

*Q* Outcome logged for `O=C(NCCCNC(=O)OCc1ccc2c(Br)cc(Br)c(O)c2n1)OCc1ccc2c(Br)cc(Br)c(O)c2n1` in this assay:
*A* inactive

*Q* And for `C[C@@H]1CC[C@H]2C(COC/C=C/COCC3=C(C(F)(F)F)O[C@@H]4O[C@@]5(C)CC[C@H]6[C@H](C)CC[C@@H]3[C@@]46OO5)=C(C(F)(F)F)O[C@@H]3O[C@@]4(C)CC[C@@H]1[C@]32OO4` ?
*A* active

*Q* And for `NC(N)=N/N=C/c1cccc(Cl)c1Cl` ?
*A* inactive

*Q* And for `COC(=O)[C@@H](Cc1c[nH]c2ccccc12)NC(=O)/C=C/c1ccccc1` ?
*A* inactive

* * *

Would you kindly list TGI for each of these compounds?
Tested on: SNB-75 CNS
Assay: NCI tumour cell line growth inhibition, 48 h
Where a SMILES comes first, the peptide text is derived from it. [ ]: non-standard residue; d: D form. The star is where a group is joined. ξ: configuration not given here. ξPhe(4-NO2) = NC(Cc1ccc([N+](=O)[O-])cc1)C(=O)O; Boc = CC(C)(C)OC(=O)*; OBn = c1ccc(CO*)cc1

*Q* So what does the record say about TGI for `O=c1oc2cc(O)ccc2c(O)c1C(c1ccccn1)c1c(O)c2ccc(O)cc2oc1=O` ?
*A* > 100 µM

*Q* And for COC(=O)C1=C(c2cc(OC)c(OC)c(OC)c2)OC(c2cc(OC)c(OC)c(OC)c2)C1COC(C)=O (stereo not drawn) ?
*A* > 100 µM

*Q* And for Cc1ccc(S(=O)(=O)[N-]C2C(=O)c3ccccc3C(=O)C2[n+]2cccc(C(N)=O)c2)cc1 (stereo not drawn) ?
*A* > 100 µM

*Q* And for CC(C)(C)OC(=O)NC(Cc1ccc([N+](=O)[O-])cc1)C(=O)NCC(=O)OCc1ccccc1 (stereo not drawn) (Boc-[ξPhe(4-NO2)]-Gly-OBn) ?
*A* 41.5 µM

*Q* And for `COc1ccc(/C=C/c2nc(=S)[nH][nH]2)cc1` ?
*A* > 100 µM

*Q* And for COc1cc(C2CC(c3ccc4c(c3)OCO4)=NN2C(C)=O)cc(OC)c1OC (stereo not drawn) ?
*A* 3.5 µM

*Q* And for `CCn1c(-c2nonc2N)nc2c(C#CC(C)(C)O)nc(O[C@@H](CN)c3ccccc3)cc21` ?
*A* 4.06 µM

*Q* And for `CN(C)CCCSc1c2ccccc2nc2cc(NCC(=O)Nc3ccccc3-c3ccccc3NC(=O)CNc3ccc4c(SCCCN(C)C)c5ccccc5nc4c3)ccc12` ?
*A* > 100 µM

*Q* And for COC(=O)C(/C(=N/N)C(=O)Nc1cc(Cl)c(Cl)cc1Cl)c1nc2ccc(Cl)cc2[nH]c1=O (stereo not drawn) ?
*A* > 100 µM

*Q* And for `CCOC(=O)C1=C(O)c2ccccc2C(=O)C1=O` ?
*A* > 100 µM

*Q* And for `COc1ccc(/C(Cl)=C(\C=O)c2ccc(Br)cc2)cc1OC` ?
*A* 30 µM

*Q* And for `COc1ccc(NC(=O)Nc2ccc(Nc3nc(C)cc(Nc4ccc(C)cc4)n3)cc2)cc1` ?
*A* 3 µM

*Q* And for C[C@]12CC(c3ccccc3O1)C(C#N)C(=O)N2 (stereo partly drawn) ?
*A* > 100 µM

*Q* And for `C[C@@H]1CC[C@H]2C(COC/C=C/COCC3=C(C(F)(F)F)O[C@@H]4O[C@@]5(C)CC[C@H]6[C@H](C)CC[C@@H]3[C@@]46OO5)=C(C(F)(F)F)O[C@@H]3O[C@@]4(C)CC[C@@H]1[C@]32OO4` ?
*A* > 100 µM

*Q* And for CS(=O)c1ccc(-c2nc(-c3ccc(F)cc3)c(-c3ccncc3)[nH]2)cc1 (stereo not drawn) ?
*A* > 100 µM

*Q* And for `CCc1ccccc1-n1c2nc(=O)n(C)c(=O)c-2nc2ccccc21` ?
*A* 28.8 µM

*Q* And for `CCCCOP(=O)(OCCCC)/C(C#N)=C/c1ccco1` ?
*A* > 100 µM

*Q* And for CC(C)=CCC/C(C)=C/CC/C(=C/COP(=O)(OCc1ccc([N+](=O)[O-])o1)N(C)CCCCCl)CC=C(C)C (stereo not drawn) ?
*A* 36.8 µM
